Recorded Emax, one value per entry.
Target: hGIP-R (Homo sapiens)
Construct: expressed in transfected cells; host or cells: HEK-293 clonal cell lines
Sequence (P48546 22-466): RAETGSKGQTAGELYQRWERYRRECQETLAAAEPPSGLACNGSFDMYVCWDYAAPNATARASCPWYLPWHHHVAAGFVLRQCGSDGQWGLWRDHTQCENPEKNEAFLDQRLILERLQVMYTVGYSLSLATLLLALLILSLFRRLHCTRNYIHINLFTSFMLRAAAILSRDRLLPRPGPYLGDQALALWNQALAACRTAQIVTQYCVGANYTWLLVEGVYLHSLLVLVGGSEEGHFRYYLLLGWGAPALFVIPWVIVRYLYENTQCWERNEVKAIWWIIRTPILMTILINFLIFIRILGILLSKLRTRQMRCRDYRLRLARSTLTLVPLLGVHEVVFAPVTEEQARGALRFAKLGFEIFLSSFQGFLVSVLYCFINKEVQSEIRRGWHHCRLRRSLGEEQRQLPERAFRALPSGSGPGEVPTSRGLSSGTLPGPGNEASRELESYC
Experiment: Functional hGIP-R Assay (cAMP formation, HTRF)
Type: cell-based
Settings: cAMP efficacy; percent of maximal response to GIP(1-42)OH; 37° C., 0.1% bovine casein; arithmetic mean ± SEM
Hi! Could you send only the number? It should be in %, unit omitted.

See these solved cases before continuing.
Compound	Scale Unit	Emax
Cc1cn2cc(-c3ccc([C@H]4C[C@@]45CCN([C@H](Cc4cnn(C(F)F)c4)C(=O)NC(C)(C)Cn4nc(C(F)(F)F)cc4-c4ccn(C6CC6)c(=O)c4)C5=O)c(Cl)c3)cnc2n1	%	65.7
Cc1cn2cc(-c3ccc(C4CC45CCN([C@H](Cc4cnn(C(F)F)c4)C(=O)NC(C)(C)Cn4nc(C(F)(F)F)cc4-c4cc(F)c(=O)n(C)c4)C5=O)c(C(F)F)c3)cnc2n1 (single isomer, unassigned; isomer 1)	%	81.7

Memo: CC(C)(Cn1cc(C(F)(F)F)cn1)NC(=O)[C@@H](Cc1cnc2ncccn12)NC(=O)[C@H]1C[C@@H]1c1ccc(-c2cnc3nc(C(F)F)cn3c2)cc1 , reported Emax: 104
